- Assay info: phenotypic screen on post-Golgi transport, primary screen (AID 739);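 also: yeast cells grown in 1536-well plates; yeast grown about 18 h at 30C before absorbance read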
- Condition set: post-Golgi transport phenotypic cell assay; at 10 µM; active compounds read high
Among all 98,000 compounds or so, about 880 (0.9%) were called active. The sample holds actives, similar compounds and a random draw of the others, so the mix is not that of the screen.
Each item that follows carries a reported inhibition.
Measured quantity: inhibition (%)

compound=COc1c(C)cccc1C(=O)Nc1cc(Cl)ccc1N1CCOCC1 measured_quantity=inhibition reported_value=64.3
compound=COc1ccc(-c2csc3nc(-c4ccccc4F)oc(=O)c23)cc1OC measured_quantity=inhibition reported_value=6.4
compound="CCC1(C)Cc2c(sc3nc(SC)nc(N)c23)CO1 (stereo not drawn)" measured_quantity=inhibition reported_value=-2.83
compound=CNS(=O)(=O)c1cnccc1N1CCN(c2cccc(C)c2)CC1 measured_quantity=inhibition reported_value=-3.21
compound=Cn1cc(S(=O)(=O)N2CCC(Cc3ccccc3)CC2)c(=O)n(C)c1=O measured_quantity=inhibition reported_value=7.01
compound=COc1cc(Cl)c(S(=O)(=O)N2CCN(Cc3ccc4c(c3)OCO4)CC2)cc1Cl measured_quantity=inhibition reported_value=38.9
compound=COC(=O)c1c(NC(=O)c2cccs2)sc2c1CCCC2 measured_quantity=inhibition reported_value=3.23
compound=Cc1c(CCO)c(=O)n(-c2ccccc2)n1S(=O)(=O)c1ccc(F)cc1 measured_quantity=inhibition reported_value=-6.46

###

- Assay info: phenotypic screen on post-Golgi transport, primary screen (AID 739);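 also: yeast cells grown in 1536-well plates; yeast grown about 18 h at 30C before absorbance read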
- Condition set: post-Golgi transport phenotypic cell assay; at 10 µM; active compounds read high
The campaign covered roughly 98,000 compounds. About 880 (0.9%) were called active. This is one part of a sample in which actives are shown more often than they occur.
Measured quantity: inhibition (%)

compound=Cc1n[nH]c(=O)n1-c1ccc(Oc2ccccc2)cc1 measured_quantity=inhibition reported_value=-19.2
compound=COc1cccc(-c2nc(S(=O)(=O)c3ccccc3)c(N3CCOCC3)o2)c1 measured_quantity=inhibition reported_value=-8.86
compound=CCN(CC)CCCNC(=O)CCc1ccccc1 measured_quantity=inhibition reported_value=3.7
compound=N#Cc1nc(-c2ccc(OCc3ccccc3)cc2)oc1NCCCN1CCOCC1 measured_quantity=inhibition reported_value=5.49
compound="CS(=O)(=O)N1CCN(c2ccc(C(=O)NC3C4CC5CC(C4)CC3C5)cc2[N+](=O)[O-])CC1 (centres undefined)" measured_quantity=inhibition reported_value=-5.58
compound=CCOC(=O)c1cc2c(ccn2C)n1CC(=O)N1CCC(C)CC1 measured_quantity=inhibition reported_value=1.25
compound=CCOC(=O)c1cc2cc(C)ccc2[nH]1 measured_quantity=inhibition reported_value=39.6
compound=N#Cc1nc(COc2ccc(-c3ccccc3)cc2)oc1NCc1cccnc1 measured_quantity=inhibition reported_value=99.8
compound=O=C(Nc1ccccc1)OCc1cc(-c2ccc(Cl)cc2)on1 measured_quantity=inhibition reported_value=-5.71
compound=CC(C)c1ccc(NC(=O)CCN2C(=O)c3ccc([N+](=O)[O-])cc3C2=O)cc1 measured_quantity=inhibition reported_value=-0.5
compound=COC(=O)C1CCN(CC(N)=O)CC1 measured_quantity=inhibition reported_value=0
compound=Cc1cccc(C(=O)Nc2ccccc2-c2nnn(CC(=O)Nc3ccc4c(c3)OCCO4)n2)c1 measured_quantity=inhibition reported_value=-5.17
compound=CCCn1nc2cc(C(=O)NCc3ccccc3)ccc2c1OCC measured_quantity=inhibition reported_value=2.26
compound="OC(COc1cccc(OCC(O)CN2CCCC2)c1)CN1CCCC1 (centres undefined)" measured_quantity=inhibition reported_value=-2.18
compound=COCc1[nH][nH]c(=O)c1C=Nc1ccc(F)cc1F measured_quantity=inhibition reported_value=5.45
compound=FC(F)(F)COc1nc(N2CCCCC2)nc(N2CCNCC2)n1 measured_quantity=inhibition reported_value=33.5
compound=CC1=NCCN1S(=O)(=O)c1ccc(Br)c(C)c1 measured_quantity=inhibition reported_value=3.83
compound=CCOc1cccc(C(=O)Nc2cnn(Cc3ccccc3)c2)c1 measured_quantity=inhibition reported_value=7.09
compound=CCOc1ccc(NC(=O)CCS(=O)(=O)c2cccc3nsnc23)cc1 measured_quantity=inhibition reported_value=-1.86
compound=O=C(c1cccc(F)c1)N1CCC(O)(c2cccnc2)CC1 measured_quantity=inhibition reported_value=1.27
compound=C=CCNC(=O)c1sc(SC)cc1-c1ccc(Cl)cc1 measured_quantity=inhibition reported_value=20
compound=c1ccc2[nH]c(-c3nc4ccccc4[nH]3)nc2c1 measured_quantity=inhibition reported_value=30.1
compound=c1ccc(-c2[nH]ncc2-c2nc3ccccc3[nH]2)cc1 measured_quantity=inhibition reported_value=11
compound=COCCn1c(SCc2nc3cc(OC)c(OC)cc3c(=O)[nH]2)nnc1-c1ccncc1 measured_quantity=inhibition reported_value=6.95
compound=CC(C)Cc1oc(C(=O)O)cc1CN measured_quantity=inhibition reported_value=-3.35
compound=COc1ccc2ccccc2c1CNCc1ccccn1 measured_quantity=inhibition reported_value=0.33
compound=COCCNS(=O)(=O)c1cc(Br)ccc1OC measured_quantity=inhibition reported_value=8.12
compound=Cc1nc2ccccc2c(=O)n1CCCn1ccnc1 measured_quantity=inhibition reported_value=2.21
compound=O=C(COc1ccccc1F)NC1CC1 measured_quantity=inhibition reported_value=15.2
compound=Cn1c(Cn2nnc3ccccc32)nnc1SCC(=O)c1ccccc1F measured_quantity=inhibition reported_value=11.5
compound=O=C(COc1ccc(Br)cc1F)NC1CCN(Cc2ccccc2)CC1 measured_quantity=inhibition reported_value=95.3
compound=O=C(NC1CCN(Cc2ccccc2)CC1)c1ccccc1F measured_quantity=inhibition reported_value=1.69
compound=CCN1CCN(c2c(Cl)cccc2NC(=O)c2ccc(Br)o2)CC1 measured_quantity=inhibition reported_value=30.4
compound="CCC(=O)c1ccc(OCC(O)CN2CC(C)OC(C)C2)cc1 (centres undefined)" measured_quantity=inhibition reported_value=2.21
